Form: system (UniProt P22303), quantity (pIC50), values below.
Convention used: pIC50 is expressed as -log10 of the molar concentration.

Give recorded pIC50 with UniProt P22303 for the following molecule: "O=C(O)/C=C/c1ccc2oc(C(=O)Nc3ccccc3)cc(=O)c2c1"
5.22

* * *

Form: system (Acetylcholinesterase (Homo sapiens)), quantity (pIC50), values below.
Convention used: pIC50 is expressed as -log10 of the molar concentration.

COc1ccc(NC(=O)c2cc(=O)c3cc(/C=C/C(=O)OCCN(C)C)ccc3o2)cc1; 6.04
CN(C)CCOC(=O)/C=C/c1ccc2occ(C(=O)Nc3ccc(Cl)cc3)c(=O)c2c1; 5.03
Cc1ccc(NC(=O)c2cc(=O)c3cc(/C=C/C(=O)OCCN(C)C)ccc3o2)cc1; 6.68
CCN(CC)CCOC(=O)/C=C/c1ccc2oc(C(=O)Nc3ccc(C)c(C)c3)cc(=O)c2c1; 5.61
COc1ccc(NC(=O)c2coc3ccc(/C=C/C(=O)OCCN(C)C)cc3c2=O)cc1; 5.45
CCN(CC)CCOC(=O)/C=C/c1ccc2oc(C(=O)Nc3ccc(C)cc3)cc(=O)c2c1; 5.01

Give recorded pIC50 with Acetylcholinesterase (Homo sapiens) for the following compound: "O=C(O)/C=C/c1ccc2occ(C(=O)Nc3ccccc3)c(=O)c2c1"
Sequence (P22303 whole entry): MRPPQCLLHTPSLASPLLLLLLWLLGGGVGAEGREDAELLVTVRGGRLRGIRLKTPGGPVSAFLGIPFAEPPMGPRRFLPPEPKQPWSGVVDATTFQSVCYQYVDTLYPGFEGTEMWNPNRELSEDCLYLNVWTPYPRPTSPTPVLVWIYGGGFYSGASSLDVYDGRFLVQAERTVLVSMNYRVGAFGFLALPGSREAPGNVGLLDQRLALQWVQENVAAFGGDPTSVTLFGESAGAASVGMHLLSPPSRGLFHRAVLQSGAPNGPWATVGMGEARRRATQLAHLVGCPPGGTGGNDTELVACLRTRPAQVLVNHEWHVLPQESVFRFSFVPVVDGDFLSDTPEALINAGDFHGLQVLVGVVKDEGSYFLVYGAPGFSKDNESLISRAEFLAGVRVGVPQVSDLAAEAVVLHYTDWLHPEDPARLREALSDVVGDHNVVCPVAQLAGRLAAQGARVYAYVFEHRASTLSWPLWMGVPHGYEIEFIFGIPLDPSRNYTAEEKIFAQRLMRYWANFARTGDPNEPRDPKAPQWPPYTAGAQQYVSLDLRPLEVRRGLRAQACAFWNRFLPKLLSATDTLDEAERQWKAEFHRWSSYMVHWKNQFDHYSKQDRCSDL
5.03

Give recorded pIC50 with Acetylcholinesterase (Homo sapiens) for the following compound: "CCN(CC)CCOC(=O)/C=C/c1ccc2oc(C(=O)Nc3cccc(Cl)c3)cc(=O)c2c1"
5.35

Give recorded pIC50 with Acetylcholinesterase (Homo sapiens) for the following compound: "CN(C)CCOC(=O)/C=C/c1ccc2oc(C(=O)Nc3ccc(Cl)cc3)cc(=O)c2c1"
5.91

Give recorded pIC50 with Acetylcholinesterase (Homo sapiens) for the following compound: "CCN(CC)CCOC(=O)/C=C/c1ccc2oc(C(=O)Nc3ccccc3)cc(=O)c2c1"
5.46

Give recorded pIC50 with Acetylcholinesterase (Homo sapiens) for the following compound: "COc1ccc(NC(=O)c2coc3ccc(/C=C/C(=O)O)cc3c2=O)cc1"
5.06

Give recorded pIC50 with Acetylcholinesterase (Homo sapiens) for the following compound: "CCN(CC)CCOC(=O)/C=C/c1ccc2occ(C(=O)Nc3ccc(Cl)cc3)c(=O)c2c1"
5.11

Recorded values, source ChEMBL document CHEMBL4265951.
